assayed.system: human adenosine A2b receptor (Homo sapiens (Human), UniProt P29275)
Sequence (P29275 whole entry): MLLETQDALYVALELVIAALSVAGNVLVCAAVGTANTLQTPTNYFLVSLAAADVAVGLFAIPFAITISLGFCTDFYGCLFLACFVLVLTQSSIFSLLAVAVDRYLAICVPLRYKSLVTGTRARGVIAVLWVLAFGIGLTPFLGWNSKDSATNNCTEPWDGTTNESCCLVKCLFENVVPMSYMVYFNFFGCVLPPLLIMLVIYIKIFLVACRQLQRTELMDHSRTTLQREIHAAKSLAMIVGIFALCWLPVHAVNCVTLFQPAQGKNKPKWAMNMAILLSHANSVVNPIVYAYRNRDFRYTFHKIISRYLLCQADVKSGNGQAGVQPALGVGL
method.summary: Cellular in vitro reporter gene test for A2b receptor activity (CHO-K1, CRE-luciferase, NECA stimulation)
Type: cell-based
settings: recombinant CHO-K1 cell line, CRE-luciferase reporter, antagonism of EC50 concentration of NECA; in some cases means of several determinations, rounded to two significant figures; read-out: A2b receptor IC50
pIC50: −log10 of the molar value.
parameter: pIC50

compound=CCn1c(=O)c2c(C)c(CN3CCNC3=O)sc2n(CCCCF)c1=O assayed_system="human adenosine A2b receptor (Homo sapiens (Human), UniProt P29275)" parameter=pIC50 val=8.18
compound="Cc1c(CN2CCNC2=NC#N)sc2c1c(=O)n(CC(F)(F)F)c(=O)n2CC1CCCO1 (single isomer, unassigned) [Example 361]" assayed_system="human adenosine A2b receptor (Homo sapiens (Human), UniProt P29275)" parameter=pIC50 val=7.89
compound="Cc1c(Cn2cc[nH]c2=O)sc2c1c(=O)n(CC(F)(F)F)c(=O)n2CC1CCCO1 (racemic) [Example 341]" assayed_system="human adenosine A2b receptor (Homo sapiens (Human), UniProt P29275)" parameter=pIC50 val=7.92

----------
assayed.system: human adenosine A2b receptor (Homo sapiens (Human))
method.summary: Cellular in vitro reporter gene test for A2b receptor activity (CHO-K1, CRE-luciferase, NECA stimulation)
Type: cell-based
settings: recombinant CHO-K1 cell line, CRE-luciferase reporter, antagonism of EC50 concentration of NECA; in some cases means of several determinations, rounded to two significant figures; read-out: A2b receptor IC50
# IC50 binned as class 1 (below 20 nM), class 2 (20 nM to below 80 nM), class 3 (80 nM or more)

compound=Cc1c(CN2CCNC2=O)sc2c1c(=O)n(CC(C)(C)O)c(=O)n2CCC(F)(F)F assayed_system="human adenosine A2b receptor (Homo sapiens (Human))" assigned_category="class 2"
compound="Cc1c(CN2CCNC2=NC#N)sc2c1c(=O)n(C(C)C)c(=O)n2CC1CCO1 (single isomer, unassigned) [Example 265]" assayed_system="human adenosine A2b receptor (Homo sapiens (Human))" assigned_category="class 1"
compound="CCn1c(=O)c2c(C)c(CN3CC(NC(=O)OC(C)(C)C)CC3=O)sc2n(CCC(F)(F)F)c1=O (racemic)" assayed_system="human adenosine A2b receptor (Homo sapiens (Human))" assigned_category="class 3"
compound=Cc1c(CN2CCN(C)C2=S)sc2c1c(=O)n(CC(F)(F)F)c(=O)n2CCCF assayed_system="human adenosine A2b receptor (Homo sapiens (Human))" assigned_category="class 2"
compound=CCOCCn1c(=O)c2c(C)c(CN3CCNC3=S)sc2n(CCOC)c1=O assayed_system="human adenosine A2b receptor (Homo sapiens (Human))" assigned_category="class 1"
compound=Cc1c(CN2CCNC2=O)sc2c1c(=O)n(CC(F)(F)F)c(=O)n2CCCF assayed_system="human adenosine A2b receptor (Homo sapiens (Human))" assigned_category="class 1"
compound="COC(=O)N=C1NCCN1Cc1sc2c(c1C)c(=O)n(C(C)C)c(=O)n2CC1CCO1 (single isomer, unassigned) [Example 458]" assayed_system="human adenosine A2b receptor (Homo sapiens (Human))" assigned_category="class 2"
compound="COCCn1c(=O)n(CC2CCCO2)c(=O)c2c(C)c(CN3CCNC3=O)sc21 (single isomer, unassigned) [Example 333]" assayed_system="human adenosine A2b receptor (Homo sapiens (Human))" assigned_category="class 3"
compound=[2H]C([2H])(c1sc2c(c1C)c(=O)n([C@@H](C)C(F)(F)F)c(=O)n2CCOC)N1CCNC1=O assayed_system="human adenosine A2b receptor (Homo sapiens (Human))" assigned_category="class 1"
compound="COCCn1c(=O)n(C(C)C(F)(F)F)c(=O)c2c(C)c(CN3CCNC3=NC(=O)OC)sc21 (racemic) [Example 471]" assayed_system="human adenosine A2b receptor (Homo sapiens (Human))" assigned_category="class 1"
compound=COCCn1c(=O)n(CC2COC2)c(=O)c2c(C)c(CN3CCNC3=O)sc21 assayed_system="human adenosine A2b receptor (Homo sapiens (Human))" assigned_category="class 3"
